Source listed as patent US10626081B2.

Recorded EC50, one value per entry.
molecular target: UniProt:Q96RI1; assay: In Vitro FXR Assay (TK): TK-ECRE-luc reporter in transfected CV-1 cells; conditions: CV-1 cells transfected with hFXR, hRXR, 18 h incubation, luminescence

1) COC(=O)/C=C/c1cccc(N(Cc2cccc(-c3ccccc3)c2)C(=O)C2CCCCC2)c1 | > 10 µM
2) COC(=O)/C=C/c1cccc(N(Cc2ccc(NC(=O)c3ccccc3)cc2)C(=O)C2CCCCC2)c1 | 1 to 10 µM
3) COC(=O)/C=C/c1cccc(N(Cc2ccc(-c3ccc4c(c3)nnn4C)cc2)C(=O)C2CCCCC2)c1 | 1 to 10 µM
4) COC(=O)C#Cc1cccc(N(Cc2ccc(-c3ccc(N(C)C)cc3)cc2)C(=O)C2CCCCC2)c1 | ≤ 1 µM
5) COC(=O)/C=C/c1cccc(N(Cc2ccc(-c3ccc(N(C)C)cc3)cc2)C(=O)[C@@H]2CCCC[C@@H]2O)c1 (relative stereo) | 1 to 10 µM

query: GET /values?readout=EC50&item= COC(=O)/C=C/c1cccc(N(Cc2ccc(-c3ccc(C)c(OC)c3)cc2)C(=O)C2CCCCC2)c1
result: 1 to 10 µM

query: GET /values?readout=EC50&item= COC(=O)/C=C/c1cccc(N(Cc2ccc(-c3ccc(N(C)C)cc3)cc2)C(=O)C23CC4CC(CC(C4)C2)C3)c1
result: 1 to 10 µM

====

biological target: FXR (Homo sapiens, UniProt Q96RI1); assay: In Vitro FXR Assay (TK): TK-ECRE-luc reporter in transfected CV-1 cells; settings: CV-1 cells transfected with hFXR, hRXR, 18 h incubation, luminescence
Sequence (Q96RI1 whole entry): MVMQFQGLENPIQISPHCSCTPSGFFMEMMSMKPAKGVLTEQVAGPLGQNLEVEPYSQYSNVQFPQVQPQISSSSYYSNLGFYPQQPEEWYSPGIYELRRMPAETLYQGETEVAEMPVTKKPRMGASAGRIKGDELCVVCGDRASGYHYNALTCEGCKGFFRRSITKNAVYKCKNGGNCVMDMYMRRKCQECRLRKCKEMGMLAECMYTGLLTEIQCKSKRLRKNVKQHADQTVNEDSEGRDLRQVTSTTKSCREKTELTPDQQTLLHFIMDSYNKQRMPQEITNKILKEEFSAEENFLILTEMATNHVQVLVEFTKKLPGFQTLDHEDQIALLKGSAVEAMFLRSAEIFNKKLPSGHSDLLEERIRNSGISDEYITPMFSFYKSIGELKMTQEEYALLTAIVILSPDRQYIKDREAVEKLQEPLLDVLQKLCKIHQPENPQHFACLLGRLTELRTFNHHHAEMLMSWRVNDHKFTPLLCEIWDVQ
Sequence (P19793 whole entry partner): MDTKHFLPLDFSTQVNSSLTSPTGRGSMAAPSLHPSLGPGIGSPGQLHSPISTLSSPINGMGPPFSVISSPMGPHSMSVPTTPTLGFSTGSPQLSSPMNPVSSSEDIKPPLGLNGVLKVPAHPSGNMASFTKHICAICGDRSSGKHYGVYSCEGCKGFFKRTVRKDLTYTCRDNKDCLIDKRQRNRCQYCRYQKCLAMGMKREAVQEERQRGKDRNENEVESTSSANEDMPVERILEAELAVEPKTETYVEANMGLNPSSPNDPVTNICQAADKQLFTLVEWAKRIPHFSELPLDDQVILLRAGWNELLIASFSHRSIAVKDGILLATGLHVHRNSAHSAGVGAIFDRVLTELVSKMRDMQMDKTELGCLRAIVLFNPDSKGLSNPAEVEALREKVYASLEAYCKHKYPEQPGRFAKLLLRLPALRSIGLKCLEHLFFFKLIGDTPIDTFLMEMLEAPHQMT
pEC50: −log10 of the molar value.
Recorded pEC50, one value per entry.

Use these answered entries as a reference point.
1) CCc1cc(/C=C/C(=O)OC)cc(N(Cc2ccc(-c3ccc(N(C)C)cc3)cc2)C(=O)C2CCCCC2)c1 | 5.00 to 6.00
2) COC(=O)/C=C/c1cc(Cl)cc(N(Cc2ccc(-c3ccc(N(C)C)cc3)cc2)C(=O)C2CCCCC2)c1 | ≥ 6.00
3) COC(=O)/C=C/c1cccc(N(Cc2ccc(-c3ccc(N(C)C)cc3)c(F)c2)C(=O)C2CCCCC2)c1 | ≥ 6.00
4) COC(=O)/C=C/c1cccc(N(Cc2ccc(-c3ccc(N(C)C)cc3)cc2C)C(=O)C2CCCCC2)c1 | ≥ 6.00
5) COC(=O)/C=C/c1cc(OC)cc(N(Cc2ccc(-c3ccc(N(C)C)cc3)cc2)C(=O)C2CCCCC2)c1 | 5.00 to 6.00

query: GET /values?readout=pEC50&item= COC(=O)/C=C/c1cccc(N(Cc2ccc(-c3ccc(N4CCC4)cc3)cc2)C(=O)C2CCCCC2)c1
result: 5.00 to 6.00

query: GET /values?readout=pEC50&item= COC(=O)/C=C/c1cccc(N(Cc2ccc(-c3ccc(N(C)C)cc3)cc2)C(=O)[C@H]2CC[C@H](OC)CC2)c1
result: ≥ 6.00

====

biological target: FXR (Homo sapiens); test: In Vitro FXR Assay (TK): TK-ECRE-luc reporter in transfected CV-1 cells; details: CV-1 cells transfected with hFXR, hRXR, 18 h incubation, luminescence
assay.readout: EC50

1) COC(=O)CCc1cccc(N(Cc2ccc(-c3ccc(N(C)C)cc3)cc2)C(=O)C2CCCCC2)c1 [compound 43] | 1 to 10 µM
2) CCc1cc(-c2ccc(N(C)C)cc2)ccc1CN(C(=O)C1CCCCC1)c1cccc(/C=C/C(=O)OC)c1 [62.14] | ≤ 1 µM
3) COC(=O)CCc1cc(N(Cc2ccc(-c3ccc(N(C)C)cc3)cc2)C(=O)C2CCCCC2)ccc1C [compound 91] | > 10 µM
4) COC(=O)/C(C)=C/c1cccc(N(Cc2ccc(-c3ccc(N(C)C)cc3)cc2)C(=O)C2CCCCC2)c1 [compound 63] | 1 to 10 µM
5) COC(=O)/C=C/c1ccc(C)c(N(Cc2ccc(-c3ccc(N(C)C)cc3)cc2)C(=O)C2CCCCC2)c1 [compound 42] | 1 to 10 µM

query: GET /values?readout=EC50&item= COC(=O)/C=C/c1cccc(N(Cc2ccc(-c3cccc(S(C)(=O)=O)c3)cc2)C(=O)C2CCCCC2)c1 [62.8]
result: > 10 µM

query: GET /values?readout=EC50&item= COC(=O)/C=C/c1cccc(N(Cc2ccc(-c3ccc(N(C)C)cc3)cc2)C(=O)[C@@H]2CCC[C@@H](O)C2)c1 (relative stereo) [13.28]
result: > 10 µM

query: GET /values?readout=EC50&item= COC(=O)/C=C/c1cccc(N(Cc2ccc(-c3cccnc3)cc2)C(=O)C2CCCCC2)c1 [compound 29]
result: 1 to 10 µM

query: GET /values?readout=EC50&item= COC(=O)/C=C/c1cccc(N(Cc2ccc(-c3cccc(CO)c3)cc2)C(=O)C2CCCCC2)c1 [62.6]
result: 1 to 10 µM

query: GET /values?readout=EC50&item= COC(=O)/C=C/c1cccc(N(Cc2ccc(-c3ccc(Cl)cc3)cc2)C(=O)C2CCCCC2)c1 [compound 34]
result: 1 to 10 µM

query: GET /values?readout=EC50&item= COC(=O)/C=C/c1cccc(N(Cc2ccc(-c3ccc(N(C)C)cc3)cc2)C(=O)C2CN(S(C)(=O)=O)C2)c1 [13.11]
result: 1 to 10 µM

query: GET /values?readout=EC50&item= COC(=O)/C=C/c1cccc(N(Cc2ccc(-c3ccc(OC)cc3F)cc2)C(=O)C2CCCCC2)c1 [compound 33]
result: 1 to 10 µM
